Hello, the source for this data is patent US11498899B2, in case you need it.

Tested on: foxtail, green (green foxtail, Setaria viridis)
Assay: Test A postemergence, visual injury rating 0-100
Type: in vivo
Details: 125 g ai/ha, 0 to 100 scale
Endpoint label: Foxtail, Green plant response rating
Please reply with the number alone, leaving off any unit.

Here are 2 molecules together with their reported answers.
1) CC1=[N+]([O-])[C@H](C(=O)Nc2cccc(F)c2F)[C@@H](c2ccc(Cl)cc2)C1 [Compound 40] | 80
2) CC1=[N+]([O-])[C@H](C(=O)Nc2ccc(F)nc2F)[C@@H](c2ccc(C(F)(F)F)cc2)C1 (relative stereo) [Compound 37] | 60

Please supply the value of reported Foxtail, Green plant response rating for the item CC1=[N+]([O-])C(C(=O)Nc2ccccc2S(C)(=O)=O)C(c2ccc(C(F)(F)F)cc2)C1 (racemic) [Compound 43]
20
